# Test system: NCI/ADR-RES ovarian
# Experimental Protocol: NCI tumour cell line growth inhibition, 48 h
Reported TGI values for a set of compounds

Compound	Measured On	Unit Text	Value Modifier	TGI
CC(=O)c1ccc2c3c1[C@@H]1O[C@@H]1c1cccc(c1-3)[C@@H]1O[C@H]21	NCI/ADR-RES ovarian	µM	>	74.6
CCC(C#N)NC(=O)NC(C#N)CC (centres undefined)	NCI/ADR-RES ovarian	µM	>	100
O=C(Nc1ccc(-n2cc(-c3ccncc3)c(-c3ccc(Cl)c(O)c3)n2)cc1)Nc1ccc(Cl)c(C(F)(F)F)c1	NCI/ADR-RES ovarian	µM	=	4.83
C=CCSS/C=C/CS(=O)CC=C (centres undefined)	NCI/ADR-RES ovarian	µM	=	74.5

----------
# Tested on: T-47D breast
# Experimental Protocol: NCI tumour cell line growth inhibition, 48 h

Compound	Measured On	TGI
CC1=COC(C)(C=C(C#N)C#N)CC1 (configuration not stated)	T-47D breast	> 100 µM
Cc1cc(C2(O)C=C(C(C)(C)C)C(=O)C(C(C)(C)C)=C2)c(C)cc1C1(O)C=C(C(C)(C)C)C(=O)C(C(C)(C)C)=C1	T-47D breast	> 100 µM
O=C(NCCCCCCNCc1cccc2ccccc12)Nc1cccc2ccccc12	T-47D breast	> 100 µM
C=C1C(=O)O[C@H]2[C@H]1CC/C(COC(=O)c1ccc(Cl)nc1)=C\CC[C@@]1(C)O[C@@H]21	T-47D breast	5.3 µM
CCC(C)(C)c1ccc(OCCCCCCN2CCNCC2)cc1	T-47D breast	3.78 µM
CN(CCCNC(=O)Cc1ccc2ccc3cccc4ccc1c2c34)CCCNc1cc(-c2ccc3ccccc3c2)nc2ccccc12	T-47D breast	4.19 µM
O=C1c2ccccc2-c2nc(-c3cccc([N+](=O)[O-])c3)nnc21	T-47D breast	> 100 µM
Cc1cn2c(/C=C3\C(=O)N(C)c4ccc(O)cc43)c(C)nc2s1	T-47D breast	64.5 µM
CC(C)CNC(=O)O	T-47D breast	> 100 µM
Cc1ccc2nc(Cl)c(/C=N/N3C(=O)/C(=C/c4ccccc4S)N=C3c3ccccc3)cc2c1	T-47D breast	> 100 µM
NC(=O)NNC(=O)c1nc[nH]c1[N+](=O)[O-]	T-47D breast	> 100 µM
CCN1C(=O)C(=C/C=C/c2ccc([N+](=O)[O-])cc2)C(=O)N(CC)C1=S	T-47D breast	> 100 µM
